# assay system: T1, Bzz1-2, P38822
# T1 sequence (P38822 568-633, looked up): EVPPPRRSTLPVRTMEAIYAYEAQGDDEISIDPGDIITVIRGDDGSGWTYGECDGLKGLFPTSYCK
# protocol: SPOT array
# conditions: median of control spots 4538
quantity kind: SPOT intensity
// return just the number, without any unit appended

Some entries whose results are on file:
DKSRPPRPPPKPLHL	1
RRRRRPHRIERPLSN	5
STPQTMRQAPKRPDA	2
SPLGAPPPPPHKDHL	0

--- query ---
Endpoint output: SPOT intensity of MARRRLPDRPPNGIG . Value?
160
